# tested-on: intracellular GCN2 (phosphorylation of the GCN2 substrate eIF2α) (Homo sapiens, UniProt Q9P2K8)
# Sequence (Q9P2K8 whole entry): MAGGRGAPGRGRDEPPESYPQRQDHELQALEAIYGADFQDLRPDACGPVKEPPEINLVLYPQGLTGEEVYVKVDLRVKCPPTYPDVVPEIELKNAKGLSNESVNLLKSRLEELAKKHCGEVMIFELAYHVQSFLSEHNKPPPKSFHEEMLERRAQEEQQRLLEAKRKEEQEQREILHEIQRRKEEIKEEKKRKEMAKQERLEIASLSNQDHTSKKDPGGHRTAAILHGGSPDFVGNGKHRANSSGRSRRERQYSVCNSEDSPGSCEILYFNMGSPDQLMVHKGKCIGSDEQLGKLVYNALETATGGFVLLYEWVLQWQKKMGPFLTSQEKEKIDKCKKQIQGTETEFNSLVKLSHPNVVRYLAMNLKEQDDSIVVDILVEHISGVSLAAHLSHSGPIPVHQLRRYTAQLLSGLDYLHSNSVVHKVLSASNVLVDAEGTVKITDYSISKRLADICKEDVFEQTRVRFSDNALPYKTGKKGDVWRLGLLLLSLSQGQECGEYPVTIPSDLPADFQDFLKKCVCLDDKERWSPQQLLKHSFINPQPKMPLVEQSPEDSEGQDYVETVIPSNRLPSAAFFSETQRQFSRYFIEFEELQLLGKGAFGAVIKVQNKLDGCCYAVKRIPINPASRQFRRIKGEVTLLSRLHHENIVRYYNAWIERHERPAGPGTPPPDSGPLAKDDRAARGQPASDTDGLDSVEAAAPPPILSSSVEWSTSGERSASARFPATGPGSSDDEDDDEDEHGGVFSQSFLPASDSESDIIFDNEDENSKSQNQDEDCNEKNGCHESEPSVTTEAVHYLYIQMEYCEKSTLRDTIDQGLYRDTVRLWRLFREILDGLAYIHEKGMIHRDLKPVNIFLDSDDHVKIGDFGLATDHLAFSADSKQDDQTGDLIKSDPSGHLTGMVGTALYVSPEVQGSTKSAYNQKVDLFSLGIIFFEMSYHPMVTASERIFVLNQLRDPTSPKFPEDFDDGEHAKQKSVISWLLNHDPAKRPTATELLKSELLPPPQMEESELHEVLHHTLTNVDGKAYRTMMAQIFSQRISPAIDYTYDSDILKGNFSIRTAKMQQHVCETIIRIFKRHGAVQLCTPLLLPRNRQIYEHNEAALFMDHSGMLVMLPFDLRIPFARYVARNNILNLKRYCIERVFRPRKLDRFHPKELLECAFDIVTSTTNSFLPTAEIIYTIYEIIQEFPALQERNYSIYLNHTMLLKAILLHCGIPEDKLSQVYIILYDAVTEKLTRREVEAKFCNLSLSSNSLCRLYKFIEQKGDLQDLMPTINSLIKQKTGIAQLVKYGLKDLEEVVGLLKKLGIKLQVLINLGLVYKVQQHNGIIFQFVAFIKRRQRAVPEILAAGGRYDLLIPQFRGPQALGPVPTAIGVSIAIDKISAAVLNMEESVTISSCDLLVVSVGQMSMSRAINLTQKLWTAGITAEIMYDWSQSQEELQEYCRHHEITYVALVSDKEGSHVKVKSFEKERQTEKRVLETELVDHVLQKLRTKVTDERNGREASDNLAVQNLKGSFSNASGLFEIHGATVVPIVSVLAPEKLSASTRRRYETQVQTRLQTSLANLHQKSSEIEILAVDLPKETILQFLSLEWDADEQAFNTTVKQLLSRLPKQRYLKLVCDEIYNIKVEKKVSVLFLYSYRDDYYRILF
# experiment-description: GCN2 cellular inhibition assay (AlphaScreen SureFire P-eIF2α Ser51, borrelidin-treated U2OS cells)
# Format: cell-based
# run-conditions: compounds of Formula IV; biomarker assay, phosphorylated eIF2α Ser51 in borrelidin-treated U2OS cells
pIC50: −log10 of the molar value.
Measured pIC50 accompanies every entry in the list below.
observed-property: pIC50

CC1CCCN(c2ccnc(-c3cnc4cnc(C(F)F)cn34)n2)C1C (stereo not shown)	< 5.30
CC1CN(c2cncc(-c3cnc4cnc(C(F)(F)F)cn34)n2)C(C)C(c2cn[nH]c2)N1 (single isomer, unassigned) [IV-650]	5.30 to 6.30
CC1CN(c2ccnc(-c3cnc4cnc(C(F)(F)F)cn34)n2)C(C)C(c2cnc[nH]2)N1 (single isomer, unassigned)	5.30 to 6.30
Cc1cc(N2CC(C)NC(c3cn[nH]c3)C2C)nc(-c2cnc3cnc(C(F)(F)F)cn23)n1 (single isomer, unassigned) [IV-670]	5.30 to 6.30

---

# tested-on: GCN2 kinase (Homo sapiens)
# experiment-description: GCN2 enzyme inhibition assay (Transcreener ADP2 fluorescence polarization)
# Type: biochemical
# run-conditions: compounds of Formula II; 280 μM ATP, 4 nM GCN2 kinase
Quick list: Ki per entry.
observed-property: Ki

[2H]C([2H])(NS(C)(=O)=O)C1CCCN(c2cc(-c3cnc4ccc(C(F)F)nn34)ncn2)C1 (stereo not shown) [II-524]	< 0.01 µM
Cc1cc(CNS(C)(=O)=O)cc(-c2cc(-c3cnc4ccc(C(F)F)nn34)ncn2)c1 [II-612]	< 0.01 µM
CCC1C(CNS(C)(=O)=O)CCCN1c1cc(-c2cnc3ccc(C(F)F)nn23)ncn1 (single isomer, unassigned) [II-417]	0.01 to 1 µM
CN1CC2(C1)CN(c1cc(-c3cnc4ccc(C(F)F)nn34)cc(N3CCCC(CNS(C)(=O)=O)C3)n1)C2 (stereo not shown) [II-72]	< 0.01 µM
FC(F)c1ccc2ncc(-c3ccnc(N4CCN5CCNCC5C4)c3)n2n1 (stereo not shown) [II-38]	0.01 to 1 µM
CS(=O)(=O)C1CCCN(c2cc(-c3cnc4ccc(C(F)F)nn34)ncn2)C1 (single isomer, unassigned) [II-530]	0.01 to 1 µM
CC1C(CNS(C)(=O)=O)CC(F)(F)CN1c1cc(-c2cnc3ccc(C(F)F)nn23)ncn1 (single isomer, unassigned) [II-360]	0.01 to 1 µM

---

// reported IC50 for each item listed
# tested-on: intracellular GCN2 (phosphorylation of the GCN2 substrate eIF2α) (Homo sapiens)
# experiment-description: GCN2 cellular inhibition assay (AlphaScreen SureFire P-eIF2α Ser51, borrelidin-treated U2OS cells)
# Assay type: cell-based
# run-conditions: compounds of Formula II; biomarker assay, phosphorylated eIF2α Ser51 in borrelidin-treated U2OS cells
observed-property: IC50

CS(=O)(=O)NCC1CN(c2cc(-c3cnc4ccc(C(F)F)nn34)ncn2)CCN1 (centres unmarked)	500 to 5000 nM
CNc1cc(-c2cnc3ccc(C(F)F)nn23)cc(N2CC(C)C(F)(F)C(CNS(C)(=O)=O)C2)n1 (centres unmarked) [II-64]	< 500 nM
CC(=O)N1CCN(c2cc(-c3cnc4ccc(C(F)F)nn34)ccn2)CC1	500 to 5000 nM
CS(=O)(=O)N1CCCC2(CN(c3cc(-c4cnc5ccc(C(F)F)nn45)ncn3)C2)C1	> 5000 nM
OCC1CN(c2cc(-c3cnc4ccc(C(F)F)nn34)ncn2)CCO1 (centres unmarked)	500 to 5000 nM
OC[C@@H]1CCCN(c2cc(-c3cnc4ccc(C(F)F)nn34)ncn2)C1	500 to 5000 nM
CC1CN(c2cc(-c3cnc4ccc(C(F)F)nn34)ccn2)CC(CNS(C)(=O)=O)C1(F)F (centres unmarked) [II-58]	< 500 nM
CC1CC(C)(O)C(CNS(C)(=O)=O)CN1c1cc(-c2cnc3ccc(C(F)F)nn23)ncn1 (centres unmarked) [II-365]	> 5000 nM

---

# tested-on: intracellular GCN2 (phosphorylation of the GCN2 substrate eIF2α) (Homo sapiens, UniProt Q9P2K8)
# experiment-description: GCN2 cellular inhibition assay (AlphaScreen SureFire P-eIF2α Ser51, borrelidin-treated U2OS cells)
# Assay type: cell-based
# run-conditions: compounds of Formula IV; biomarker assay, phosphorylated eIF2α Ser51 in borrelidin-treated U2OS cells
observed-property: IC50

FC(F)c1cn2c(-c3nccc(N4CCC5(CCC5)C4)n3)cnc2cn1 [IV-75]	> 5 µM
C[C@@H]1CN(c2ccnc(-c3cnc4cnc(C(F)(F)F)cn34)n2)C[C@H](c2cn[nH]c2)O1 (racemic) [IV-12]	< 0.5 µM
CC1CCN(c2ccnc(-c3cnc4cnc(C(F)F)cn34)n2)CC1C(N)=O (stereo not drawn) [IV-108]	0.5 to 5 µM
CC(=O)N1CCN(c2cccc(-c3cnc4cnc(-n5cccn5)cn34)n2)CC1 [IV-209]	0.5 to 5 µM
FC(F)c1cn2c(-c3nccc(N4CC5CCC(C4)O5)n3)cnc2cn1 [IV-91]	> 5 µM
CN1CCN(Cc2cccc(-c3ccnc(-c4cnc5cnc(C(F)F)cn45)n3)c2)CC1 [IV-166]	> 5 µM
CS(=O)(=O)NC1CCN(c2ccnc(-c3cnc4cnc(C(F)F)cn34)n2)C1 (stereo not drawn) [IV-70]	> 5 µM
CC1(C)CN(c2ccnc(-c3cnc4cnc(Br)cn34)n2)CC(c2cn[nH]c2)N1 (stereo not drawn) [IV-354]	> 5 µM
CN(C)S(=O)(=O)C1CCCN(c2ccnc(-c3cnc4cnc(C(F)F)cn34)n2)C1 (stereo not drawn) [IV-170]	> 5 µM

---

# tested-on: intracellular GCN2 (phosphorylation of the GCN2 substrate eIF2α) (Homo sapiens)
# experiment-description: GCN2 cellular inhibition assay (AlphaScreen SureFire P-eIF2α Ser51, borrelidin-treated U2OS cells)
# Assay type: cell-based
# run-conditions: compounds of Formula II; biomarker assay, phosphorylated eIF2α Ser51 in borrelidin-treated U2OS cells
pIC50: −log10 of the molar value.
Below: a set of entries, each annotated with reported pIC50.
observed-property: pIC50

CC1C(CNS(C)(=O)=O)CN(c2cc(-c3cnc4ccc(C(F)F)nn34)ncn2)CC1(F)F (centres unmarked) [II-381]	> 6.30
FC(F)(F)c1ccc2ncc(-c3ccnc(N4CCOC(c5cn[nH]c5)C4)c3)n2n1 (centres unmarked) [II-225]	> 6.30
C[C@@H]1CCCCN1c1cc(-c2cnc3ccc(C(F)F)nn23)ncn1	< 5.30
CC1CC(CNS(C)(=O)=O)C(C)N(c2cc(-c3cnc4ccc(C(F)F)nn34)ncn2)C1 (centres unmarked) [II-511]	> 6.30
CC1CN(c2cc(-c3cnc4ccc(C(F)F)nn34)ccn2)CC(CNS(C)(=O)=O)C1(F)F (centres unmarked) [II-57]	5.30 to 6.30
CC1CN(c2cc(-c3cnc4ccc(C#N)nn34)ncn2)C(C)C(c2cn[nH]c2)N1 (centres unmarked)	5.30 to 6.30
CS(=O)(=O)N[C@H]1CCCN(c2cc(-c3cnc4ccc(C(F)F)nn34)ncn2)C1 (single isomer, unassigned)	5.30 to 6.30
CC1C(CNS(C)(=O)=O)C(F)(F)C(C)CN1c1cc(-c2cnc3ccc(C(F)F)nn23)ncn1 (centres unmarked) [II-475]	> 6.30

---

# tested-on: GCN2 kinase (Homo sapiens, UniProt Q9P2K8)
# Sequence (Q9P2K8 whole entry): as above
# experiment-description: GCN2 enzyme inhibition assay (Transcreener ADP2 fluorescence polarization)
# Format: biochemical
# run-conditions: compounds of Formula II; 280 μM ATP, 4 nM GCN2 kinase
observed-property: Ki

CS(=O)(=O)CCN1CCC(c2cc(-c3cnc4ccc(C(F)F)nn34)ncn2)C1 (stereo not shown)	10 to 1000 nM
CS(=O)(=O)N1CCC2(CCN(c3cc(-c4cnc5ccc(C(F)F)nn45)ncn3)C2)CC1	10 to 1000 nM
CS(=O)(=O)NCC1CCCN(c2cc(-c3cnc4ccc(C(F)F)nn34)ccn2)C1 (stereo not shown)	< 10 nM
CS(=O)(=O)NC1(C2CCN(c3cc(-c4cnc5ccc(C(F)F)nn45)ncn3)C2)CC1 (stereo not shown)	10 to 1000 nM

---

# tested-on: UniProtKB Q9P2K8
# experiment-description: GCN2 enzyme inhibition assay (Transcreener ADP2 fluorescence polarization)
# Format: biochemical
# run-conditions: compounds of Formula II; 280 μM ATP, 4 nM GCN2 kinase
observed-property: Ki

CC(=O)N1CCN(c2cc(-c3cnc4ccc(Cl)nn34)ncn2)CC1	> 1000 nM
CCS(C)(=O)=NC1CC(C)CN(c2cc(-c3cnc4ccc(C(F)F)nn34)ncn2)C1 (stereo not drawn) [II-635]	10 to 1000 nM
N=S1(=O)CCN(c2cc(-c3cnc4ccc(C(F)F)nn34)ncn2)CC1	10 to 1000 nM
CC(O)c1ccc2ncc(-c3cc(N4C[C@@H](CNS(C)(=O)=O)C(F)(F)[C@@H](C)C4)ncn3)n2n1 (stereo partly drawn)	10 to 1000 nM
CS(=O)(=O)CCN1CCCC(c2cc(-c3cnc4ccc(C(F)F)nn34)ncn2)C1 (stereo not drawn)	10 to 1000 nM
OC[C@H]1C[C@@H](C(F)(F)F)CN(c2cc(-c3cnc4ccc(C(F)F)nn34)ncn2)C1	10 to 1000 nM
Cc1ncc(-c2cnc3ccc(C(F)F)nn23)cc1N1CCCC(CNS(C)(=O)=O)C1 (stereo not drawn)	10 to 1000 nM
CC(=O)N1CCN(c2cc(-c3cnc4ccc(CO)nn34)ccn2)CC1	10 to 1000 nM
Cn1cc(C(=O)N2CCCC(c3cc(-c4cnc5ccc(C(F)F)nn45)ncn3)C2)cn1 (stereo not drawn)	10 to 1000 nM
